Measured cell viability, listed per entry.
tested on: Calu-3; experiment: cell viability relative to DMSO; higher = less toxic; details: 72 h; 1000 nM
API: value field is a number in %; no unit string.

compound: CC(=O)N[C@H]1[C@@H](OC(C)C)O[C@H](COC(C)=O)[C@@H](OC(C)=O)[C@@H]1OC(C)=O
cell viability (%): 95.5
--
compound: CC1(C)CC[C@]2(C(=O)O)CC[C@]3(C)[C@H](C(=O)C=C4[C@@]5(C)C=C(C#N)C(=O)C(C)(C)[C@@H]5CC[C@]43C)[C@@H]2C1
cell viability (%): 92.5

Field: next compound
Asked: Notebook: pull reported cell viability for Calu-3, entry CC(=O)O[C@H]1C[C@H](O[C@H]2[C@@H](O)C[C@H](O[C@H]3[C@@H](O)C[C@H](O[C@H]4CC[C@@]5(C)[C@H](CC[C@@H]6[C@@H]5C[C@@H](O)[C@]5(C)[C@@H](C7=CC(=O)OC7)CC[C@]65O)C4)O[C@@H]3C)O[C@@H]2C)O[C@H](C)[C@H]1O[C@@H]1O[C@H](CO)[C@@H](O)[C@H](O)[C@H]1O [lanatoside-C]
Given back: 30.6
